Catalogue of Tm readings, one per entry.
B1: Limonene-1,2-epoxide hydrolase, Q9ZAG3 (parent)
chain: MTSKIEQPRWASKDSAAGAASTPDEKIVLEFMDALTSNDAAKLIEYFAEDTMYQNMPLPPAYGRDAVEQTLAGLFTVMSIDAVETFHIGSSNGLVYTERVDVLRALPTGKSYNLSILGVFQLTEGKITGWRDYFDLREFEEAVDLPLRG

Variants of: B1
Applied conditions: Rhodococcus erythropolis; pH 7.1; Thermal; Fluorescence; Potassium phosphate 50mM; transition: 2; reversible: no; structure 1NWW; whole UniProt chain shown
Give the value; after it, write the unit.

Please review the following examples before continuing.
# Mutant name, Measurement
records = [
    ("L94F", "48.8 °C"),
    ("E124D", "50.1 °C"),
    ("Q121V", "38.8 °C"),
    ("E45R", "47.8 °C"),
]

Please turn your attention to the following entry.
Lookup: // Input: "T85L" . Output its Tm only.
Found: 51.3 °C
